Target: E255V Bcr-abl (Ba/F3 cells) (Homo sapiens, UniProt P00519, E255V)
Construct: the other entry of the earlier key: BCR (P11274, Breakpoint cluster region protein)
Assay: Proliferation of Ba/F3 cells expressing mutant Bcr-abl E255V
recorded.metric: pIC50
The quantity pIC50 is defined as the negative base-10 logarithm of the molar concentration.

Fill in: E255V Bcr-abl (Ba/F3 cells) (Homo sapiens, UniProt P00519, E255V) pIC50 for Cc1cn(-c2cc(C(=O)Nc3ccc(C)c(Nc4nccn4-c4ncnc5[nH]ccc45)c3)cc(C(F)(F)F)c2)cn1 [Example 2] = 7.37

* * *

Target: UniProt:P22607
Sequence (P22607 23-806): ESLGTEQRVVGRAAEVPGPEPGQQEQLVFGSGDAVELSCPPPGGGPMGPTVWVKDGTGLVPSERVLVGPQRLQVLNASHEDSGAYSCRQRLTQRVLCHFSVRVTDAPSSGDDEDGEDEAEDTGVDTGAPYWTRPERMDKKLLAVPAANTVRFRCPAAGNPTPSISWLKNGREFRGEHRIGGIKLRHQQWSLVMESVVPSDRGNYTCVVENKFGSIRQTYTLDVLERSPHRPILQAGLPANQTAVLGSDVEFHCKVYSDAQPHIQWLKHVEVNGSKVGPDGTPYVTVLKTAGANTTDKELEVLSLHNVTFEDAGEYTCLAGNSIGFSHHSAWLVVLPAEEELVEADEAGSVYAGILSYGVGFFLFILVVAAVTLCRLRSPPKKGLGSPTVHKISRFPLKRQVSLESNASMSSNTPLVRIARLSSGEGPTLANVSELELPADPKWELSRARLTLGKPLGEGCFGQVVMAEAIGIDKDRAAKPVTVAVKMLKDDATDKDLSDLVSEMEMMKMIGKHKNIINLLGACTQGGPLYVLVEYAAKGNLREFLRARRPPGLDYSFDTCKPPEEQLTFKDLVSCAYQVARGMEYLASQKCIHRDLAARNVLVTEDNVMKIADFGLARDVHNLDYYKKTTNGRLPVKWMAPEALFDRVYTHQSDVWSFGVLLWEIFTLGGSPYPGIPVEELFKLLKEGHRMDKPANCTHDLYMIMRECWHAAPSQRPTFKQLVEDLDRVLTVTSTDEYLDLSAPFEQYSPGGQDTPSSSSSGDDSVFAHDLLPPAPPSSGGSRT
recorded.metric: IC50 (nM)
Respond with the bare value in nM.

Fill in: UniProt:P22607 IC50 for CCN1CCN(Cc2ccc(NC(=O)c3cc(Nc4nccn4-c4ncnc5[nH]ccc45)cc(OC)c3)cc2C(F)(F)F)CC1 = 4

* * *

Biological target: G250E Bcr-abl (Ba/F3 cells) (Homo sapiens, UniProt P00519, G250E)
Construct: expressed in transfected cells; host or cells: Ba/F3; the other entry of the earlier key: BCR (P11274, Breakpoint cluster region protein)
Sequence (P00519 229-512 G250E limits assumed): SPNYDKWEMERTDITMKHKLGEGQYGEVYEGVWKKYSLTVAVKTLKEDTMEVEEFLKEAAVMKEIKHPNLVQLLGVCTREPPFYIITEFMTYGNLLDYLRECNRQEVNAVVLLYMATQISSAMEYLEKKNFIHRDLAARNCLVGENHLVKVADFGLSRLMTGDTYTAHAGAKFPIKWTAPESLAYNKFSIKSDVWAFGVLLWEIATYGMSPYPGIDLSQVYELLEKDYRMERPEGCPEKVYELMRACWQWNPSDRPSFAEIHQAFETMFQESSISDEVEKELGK
Assay: Proliferation of Ba/F3 cells expressing mutant Bcr-abl G250E
Format: cell-based
recorded.metric: IC50 (nM)
Respond with the bare value in nM.

IC50 reading for Cc1cn(-c2cc(C(=O)Nc3ccc(C)c(Nc4nccn4-c4ncnc5[nH]ccc45)c3)cc(C(F)(F)F)c2)cn1 [Example 2] : 56

* * *

Target: b-Raf (Homo sapiens, UniProt P15056)
Sequence (P15056 whole entry): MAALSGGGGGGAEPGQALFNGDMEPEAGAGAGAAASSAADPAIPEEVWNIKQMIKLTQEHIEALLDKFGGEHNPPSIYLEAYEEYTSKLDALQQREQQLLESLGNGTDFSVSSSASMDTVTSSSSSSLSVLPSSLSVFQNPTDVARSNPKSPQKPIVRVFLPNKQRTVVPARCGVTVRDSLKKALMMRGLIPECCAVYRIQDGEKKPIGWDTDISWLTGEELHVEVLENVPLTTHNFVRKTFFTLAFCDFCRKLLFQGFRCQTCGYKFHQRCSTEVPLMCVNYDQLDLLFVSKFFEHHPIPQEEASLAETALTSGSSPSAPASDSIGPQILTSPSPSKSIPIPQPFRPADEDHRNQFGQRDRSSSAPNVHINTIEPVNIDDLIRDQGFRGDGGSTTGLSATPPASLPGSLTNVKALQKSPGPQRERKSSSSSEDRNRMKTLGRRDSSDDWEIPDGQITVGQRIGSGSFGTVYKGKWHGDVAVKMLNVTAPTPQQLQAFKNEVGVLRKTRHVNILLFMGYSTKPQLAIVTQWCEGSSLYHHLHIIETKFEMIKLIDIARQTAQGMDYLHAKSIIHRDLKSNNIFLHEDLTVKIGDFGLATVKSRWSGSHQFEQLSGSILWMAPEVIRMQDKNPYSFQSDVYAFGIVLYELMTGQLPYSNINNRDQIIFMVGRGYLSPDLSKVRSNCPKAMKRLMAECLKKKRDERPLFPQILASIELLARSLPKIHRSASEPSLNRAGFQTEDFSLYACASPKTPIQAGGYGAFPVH
recorded.metric: pIC50
The quantity pIC50 is defined as the negative base-10 logarithm of the molar concentration.

pIC50 reading for Cc1cn(-c2cc(C(=O)Nc3ccc(C)c(Nc4nccn4-c4ncnc5[nH]ccc45)c3)cc(C(F)(F)F)c2)cn1 : 8.70

* * *

Molecular target: M351T Bcr-abl (Ba/F3 cells) (Homo sapiens, UniProt P00519, M351T)
Construct: expressed in transfected cells; host or cells: Ba/F3; the other entry of the earlier key: BCR (P11274, Breakpoint cluster region protein)
Experiment: Proliferation of Ba/F3 cells expressing mutant Bcr-abl M351T
Assay type: cell-based
pIC50: −log10 of the molar value.
recorded.metric: pIC50

pIC50 reading for Cc1cn(-c2cc(C(=O)Nc3ccc(C)c(Nc4nccn4-c4ncnc5[nH]ccc45)c3)cc(C(F)(F)F)c2)cn1 : > 9.30

* * *

Test system: b-Raf (A375 cells, V599E mutation)
Experiment: b-Raf cellular assay (phosphorylation of MEK in A375 cells)
Assay type: cell-based
Conditions: Homo sapiens, A-375, phospho-MEK
recorded.metric: IC50 (µM)
Respond with the bare value in µM.

Fill in: b-Raf (A375 cells, V599E mutation) IC50 for Cc1cn(-c2cc(C(=O)Nc3ccc(C)c(Nc4nccn4-c4ncnc5[nH]ccc45)c3)cc(C(F)(F)F)c2)cn1 [Example 2] = 0.032
